System: barnyardgrass (Echinochloa crus-galli)
assay_overview: Test A pre-/postemergence greenhouse test
Type: in vivo
experimental_conditions: Postemergence, 31 g ai/ha
reported_metric: Plant response rating (0 to 100 scale)
# output: bare number, no unit

INSERT INTO measurements (compound, reported_metric, observed) VALUES
  ('Cc1ccc2ccc(C)c(-c3c(O)c(Cl)nn(C)c3=O)c2c1 [Cpd. No. 20]', 'Plant response rating (0 to 100 scale)', 80);

In one line, give reported Plant response rating (0 to 100 scale) of the entry Cc1ccc2ccc(F)cc2c1-c1c(O)c(Cl)nn(C)c1=O [Cpd. No. 21] .
80

# return recorded Plant response rating (0 to 100 scale) for entry Cc1cc(Cl)c2ccccc2c1-c1c(O)c(Cl)nn(C)c1=O [Cpd. No. 65]
100

Answer with reported Plant response rating (0 to 100 scale) of Cc1ccc2ccc(Cl)cc2c1-c1c(O)c(Cl)nn(C)c1=O [Cpd. No. 22]
100

###

Measured Plant response rating (0 to 100 scale), listed per entry.
System: kochia (Kochia scoparia)
assay_overview: Test A pre-/postemergence greenhouse test
Assay type: in vivo
experimental_conditions: Preemergence, 31 g ai/ha

In the examples that follow, each entry is paired with its recorded Plant response rating (0 to 100 scale).
INSERT INTO measurements (smiles_text, observed) VALUES
  ('Cc1cc(Cl)c2ccccc2c1-c1c(O)c(Cl)nn(C)c1=O', 0),
  ('Cc1ccc2ccc(Cl)cc2c1-c1c(O)c(Cl)nn(C)c1=O', 10),
  ('Cc1ccc2ccc(F)cc2c1-c1c(O)c(Cl)nn(C)c1=O', 50);

Could you now look at the following compound, please?
Supply measured Plant response rating (0 to 100 scale) of Cc1ccc2ccc(C)c(-c3c(O)c(Cl)nn(C)c3=O)c2c1 in your reply.
30

###

Test system: ragweed (common ragweed, Ambrosia elatior)
assay_overview: Test C pre-/postemergence greenhouse test
Assay type: in vivo
experimental_conditions: Postemergence, 16 g ai/ha; scale 0 to 100
Readings of Plant response rating, Ragweed for the listed compounds
Would you mind answering with just the numeric figure?

Sample answers from the record:
INSERT INTO assay_data (smiles_text, reported_metric, observed) VALUES
  ('Cc1ccc2ccc(F)cc2c1-c1c(O)c(Cl)nn(C)c1=O', 'Plant response rating, Ragweed', 90),
  ('Cc1ccc2ccc(C)c(-c3c(O)c(Cl)nn(C)c3=O)c2c1', 'Plant response rating, Ragweed', 85),
  ('Cc1cc(Cl)c2ccccc2c1-c1c(O)c(Cl)nn(C)c1=O', 'Plant response rating, Ragweed', 98);

Note: attention shifts to another entry.
Hello, please tell me recorded Plant response rating, Ragweed for this one: Cc1ccc2ccc(Cl)cc2c1-c1c(O)c(Cl)nn(C)c1=O
90

###

# Plant response rating, Blackgrass per entry
Tested on: blackgrass (Alopecurus myosuroides)
assay_overview: Test C pre-/postemergence greenhouse test
Assay type: in vivo
experimental_conditions: Preemergence, 31 g ai/ha; scale 0 to 100
Excerpt: […]
Enter the number alone.

Worked examples, 3 compounds total:
INSERT INTO assay_data (compound, assay_target, reported_metric, observed) VALUES
  ('Cc1ccc2ccc(Cl)cc2c1-c1c(O)c(Cl)nn(C)c1=O [Cpd. No. 22]', 'blackgrass (Alopecurus myosuroides)', 'Plant response rating, Blackgrass', 25),
  ('Cc1cc(Cl)c2ccccc2c1-c1c(O)c(Cl)nn(C)c1=O [Cpd. No. 65]', 'blackgrass (Alopecurus myosuroides)', 'Plant response rating, Blackgrass', 5),
  ('Cc1ccc2ccc(C)c(-c3c(O)c(Cl)nn(C)c3=O)c2c1 [Cpd. No. 20]', 'blackgrass (Alopecurus myosuroides)', 'Plant response rating, Blackgrass', 85);

For the next question, use this compound.
Determine from records and report Plant response rating, Blackgrass for Cc1ccc2ccc(F)cc2c1-c1c(O)c(Cl)nn(C)c1=O [Cpd. No. 21]
50

Data origin: patent US12435044B2
